# Assay Explanation: preservation of ATP in cytokine-treated beta cells – cell-based, ATP luminescence, single point, primary screen (AID 488910)
# Condition Notes: INS-1E cytokine-induced death, 48 h, at 10 µM, active compounds read high, normalised: neutral wells 0, positive control 100
In all, about 20,000 compounds went through this assay and about 25 (0.1%) were called active. Many of the other results were omitted from the sample, so actives are more common in it than they were.
Endpoint Label: protection from cytokine-induced ATP loss (%)
Just the number please, in %, no unit attached.

These recorded examples may help you get a feel for the data.
COC(=O)CCCCCCC(=O)N/N=C/c1ccc(O)c(OC)c1 :: 9.74
COc1ccc(NC(=O)N(C)C[C@H]2Oc3c(NC(=O)C4CC4)cccc3C(=O)N([C@@H](C)CO)C[C@@H]2C)cc1 :: -1.85

# return recorded protection from cytokine-induced ATP loss for input C[C@@H]1CN([C@H](C)CO)C(=O)Cc2cc(NC(=O)CCN3CCOCC3)ccc2O[C@@H]1CN(C)S(C)(=O)=O 3.88

Value source: PubChem BioAssay AID488910
